These entries and their values trace back to patent US5041567A.

compounds and their reported MIC
Test system: Strep. suis (group D) SPS11
Test: MIC against veterinary bacteria in vitro
Settings: Streptococcus suis, 18 h
Write it as a number; the unit µg/mL goes unstated.

Q: Look at this compound and give its reported MIC. `C/C(=C\c1ncc(-c2ccc(Br)s2)o1)C[C@@H]1OC[C@H](C[C@@H]2O[C@H]2[C@@H](C)[C@H](C)O)[C@@H](O)[C@H]1O`
Ans: 10

###

Tested on: M. suipneumoniae Str. 11
Assay: MIC against mycoplasma in vitro
Type: cell-based
Conditions: Mesomycoplasma hyopneumoniae, STR.11, 144 h
measured_property: MIC (µg/mL)
Write it as a number; the unit µg/mL goes unstated.

[
  {
    "line_notation": "C/C(=C\\c1ncc(C)o1)C[C@@H]1OC[C@H](C[C@@H]2O[C@H]2[C@@H](C)[C@H](C)O)[C@@H](O)[C@H]1O",
    "MIC, µg/mL": 2.5
  },
  {
    "line_notation": "C/C(=C\\c1cc(C)on1)C[C@@H]1OC[C@H](C[C@@H]2O[C@H]2[C@@H](C)[C@H](C)O)[C@@H](O)[C@H]1O",
    "MIC, µg/mL": 1
  },
  {
    "line_notation": "C/C(=C\\c1ncc(-c2ccc(Br)cc2)o1)C[C@@H]1OC[C@H](C[C@@H]2O[C@H]2[C@@H](C)[C@H](C)O)[C@@H](O)[C@H]1O",
    "MIC, µg/mL": 0.25
  },
  {
    "line_notation": "COc1ccc(-c2cnc(/C=C(\\C)C[C@@H]3OC[C@H](C[C@@H]4O[C@H]4[C@@H](C)[C@H](C)O)[C@@H](O)[C@H]3O)o2)cc1",
    "MIC, µg/mL": 0.5
  },
  {
    "line_notation": "C/C(=C\\c1ncc(-c2ccccc2)o1)C[C@@H]1OC[C@H](C[C@@H]2O[C@H]2[C@@H](C)[C@H](C)O)[C@@H](O)[C@H]1O",
    "MIC, µg/mL": 0.5
  }
]

Q: Look at this compound and give its reported MIC. `C/C(=C\c1ncc(-c2ccc(C(=O)O)cc2)o1)C[C@@H]1OC[C@H](C[C@@H]2O[C@H]2[C@@H](C)[C@H](C)O)[C@@H](O)[C@H]1O`
Ans: 2.5

Q: Look at this compound and give its reported MIC. `C/C(=C\c1ncc(-c2ccc(C#N)cc2)o1)C[C@@H]1OC[C@H](C[C@@H]2O[C@H]2[C@@H](C)[C@H](C)O)[C@@H](O)[C@H]1O`
Ans: 0.25

Q: Look at this compound and give its reported MIC. `C/C(=C\c1cc(-c2ccccc2)on1)C[C@@H]1OC[C@H](C[C@@H]2O[C@H]2[C@@H](C)[C@H](C)O)[C@@H](O)[C@H]1O`
Ans: 1

###

System: Strep. suis (group D) SPS11
Experiment: MIC against veterinary bacteria in vitro
Details: Streptococcus suis, 18 h
molecules and their reported MIC
Write it as a number; the unit µg/mL goes unstated.

[
  {
    "molecule": "C/C(=C\\c1ncc(-c2cccc(C#N)c2)o1)C[C@@H]1OC[C@H](C[C@@H]2O[C@H]2[C@@H](C)[C@H](C)O)[C@@H](O)[C@H]1O",
    "MIC / µg/mL": 10
  },
  {
    "molecule": "C/C(=C\\c1ncc(-c2ccc(C(=O)O)cc2)o1)C[C@@H]1OC[C@H](C[C@@H]2O[C@H]2[C@@H](C)[C@H](C)O)[C@@H](O)[C@H]1O",
    "MIC / µg/mL": 40
  },
  {
    "molecule": "C/C(=C\\c1ncc(-c2ccc(S(=O)(=O)N(C)C)cc2)o1)C[C@@H]1OC[C@H](C[C@@H]2O[C@H]2[C@@H](C)[C@H](C)O)[C@@H](O)[C@H]1O",
    "MIC / µg/mL": 2.5
  },
  {
    "molecule": "C/C(=C\\c1ncc(-c2ccc(C#N)cc2)o1)C[C@@H]1OC[C@H](C[C@@H]2O[C@H]2[C@@H](C)[C@H](C)O)[C@@H](O)[C@H]1O",
    "MIC / µg/mL": 10
  },
  {
    "molecule": "C/C(=C\\c1ncc(CCCCCCCCO)o1)C[C@@H]1OC[C@H](C[C@@H]2O[C@H]2[C@@H](C)[C@H](C)O)[C@@H](O)[C@H]1O",
    "MIC / µg/mL": 80
  }
]

Please turn your attention to the following entry.
Q: Look at this molecule and give its reported MIC. C/C(=C\c1ncc(-c2ccc([S+](C)[O-])cc2)o1)C[C@@H]1OC[C@H](C[C@@H]2O[C@H]2[C@@H](C)[C@H](C)O)[C@@H](O)[C@H]1O (stereo partly drawn)
Ans: 5
